System: SMN2 CJ mRNA
Assay: Gene panel canonical junction qPCR splicing assay, SMN2
Type: cell-based
Settings: Table 4, read-out: SMN2 IC50 (decrease in CJ mRNA levels)
Method: Compounds described herein were used to modulate RNA transcript abundance in cells. The expression of a target mRNA was measured by detecting the formation of an exon-exon junction in the canonical transcript (CJ). A compound mediated exon-inclusion event was detected by observing an increase in formation of a new junction with an alternative exon (AJ). […] After treatment, the levels of the HTT mRNA targets were determined from each sample of cell lysate by cDNA synthesis followed by qPCR. […]
Endpoint label: IC50

Worked examples, 3 compounds total:
Query string: Item Cc1nc2c(F)c(O)c(-c3ccc4nc(N5CC[C@H](NC6CC6)C5)ccc4n3)cc2o1 (single isomer, unassigned) with SMN2 CJ mRNA - IC50?
Result string: < 100 nM

Query string: How about this compound: Cn1cc2cc(-c3ccc4c(F)c(C5CCNCC5)ccc4n3)c(O)cc2n1
Result string: < 100 nM

Query string: How about this compound: c1c[nH]c(-c2ccc3nc(C4CCNCC4)ccc3n2)n1
Result string: 1000 to 10000 nM

More entries:
Query string: Item Cc1cn2nc(-c3ccc4nc(C5CCNCC5)ccc4n3)c(O)cc2n1 with SMN2 CJ mRNA - IC50?
Result string: > 10000 nM

Query string: How about this compound: Cc1nc2cc(O)c(-c3ccc4nc(N5CCC(NC(C)(C)C)C5)ccc4n3)cc2s1 (stereo not drawn)
Result string: < 100 nM

Query string: How about this compound: Cn1cc2cc(-c3ccc4nc(N5CC6(CNC6)C5)ccc4n3)c(O)cc2n1
Result string: < 100 nM

Query string: How about this compound: Cc1nc2cc(O)c(-c3ccc4nc(N5CCC(NC(C)(C)C)C5)ccc4n3)cc2o1 (stereo not drawn)
Result string: < 100 nM

Query string: How about this compound: Cn1cc2cc(-c3ccc4nc(C5CCNCC5)ccc4n3)c(C#N)cc2n1
Result string: 100 to 1000 nM

Query string: How about this compound: C[C@@H]1CC(c2ccc3nc(-c4cc5cn(C)nc5cc4O)ccc3n2)C[C@H](C)N1 (stereo partly drawn)
Result string: < 100 nM

Query string: How about this compound: CC(C)N[C@H]1CCN(c2ccc3nc(-c4cc5cn(C)nc5cc4O)ccc3n2)C1
Result string: < 100 nM

Query string: How about this compound: Cn1cc2cc(-c3ccc4nc(N5CC[C@H](NC6COC6)C5)ccc4n3)c(O)cc2n1 (stereo in doubt)
Result string: < 100 nM

Query string: How about this compound: Cc1nc(-c2ccc3nc(N4CCC(NC(C)(C)C)C4)ccc3n2)cc2cn(C)nc12 (stereo not drawn)
Result string: 1000 to 10000 nM
